Target: T1, TIAM2, Q8IVF5
T1 sequence (Q8IVF5 885-986, limits assumed, looked up): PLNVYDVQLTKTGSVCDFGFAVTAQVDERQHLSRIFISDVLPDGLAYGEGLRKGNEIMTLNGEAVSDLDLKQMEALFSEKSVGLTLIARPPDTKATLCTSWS
Test: holdup assay
Set-up: key: below the threshold = too weak to quantify, mostly under pKd 3.1 to 4
Settings: plain residues with an end cap or a label only (N-terminal biotin on a linker: ado-ado)
Property Measured: pKd

Prompt line: I am curious: what pKd value has been reported for TGLWKHETTV [ADGRA3, Q8IWK6] ?
Response line: below the threshold

Prompt line: I am curious: what pKd value has been reported for LKDDELKTKL [SLCO1A2, P46721] ?
Response line: below the threshold

Prompt line: I am curious: what pKd value has been reported for RDPPAEWTRV [PTPN18, Q99952] ?
Response line: below the threshold

Prompt line: I am curious: what pKd value has been reported for QSYPSKHDYV [CLDN18, P56856] ?
Response line: below the threshold
